system: 324938-238-R-J1-PDC complex spheroid growth, % test/control; experiment: Anticancer human tumor 324938-238-R-J1-PDC patient-derived bladder carcinoma cell line growth inhibition [AhR]; details: second compound 1 µM; first compound 0.00949 µM; stronger effect = lower value
Rule: viability, T/C below 80% gives Y. Equal to or above 80% gives N.

molecule	system_name	classification
Nc1ncn(C2CC(O)C(CO)S2)c(=O)n1 (stereo unspecified) + CC(CO)NC(=O)c1cc(-c2ccc(Cl)cc2)nn(-c2cnn(C)c2)c1=O	324938-238-R-J1-PDC complex spheroid growth, % test/control	N
CCN(c1cc(-c2ccc(CN3CCOCC3)cc2)cc(C(=O)NCc2c(C)cc(C)[nH]c2=O)c1C)C1CCOCC1 + CC(CO)NC(=O)c1cc(-c2ccc(Cl)cc2)nn(-c2cnn(C)c2)c1=O	324938-238-R-J1-PDC complex spheroid growth, % test/control	N
O=C(C=Cn1cnc(-c2cc(C(F)(F)F)cc(C(F)(F)F)c2)n1)NNc1cnccn1 + Cc1cncc(-c2nc(NCCc3c[nH]c4ccccc34)c3ncn(C(C)C)c3n2)c1	324938-238-R-J1-PDC complex spheroid growth, % test/control	N
CC(C)CC(NC(=O)C(Cc1ccccc1)NC(=O)c1cnccn1)B(O)O (stereo unspecified) + CC(CO)NC(=O)c1cc(-c2ccc(Cl)cc2)nn(-c2cnn(C)c2)c1=O	324938-238-R-J1-PDC complex spheroid growth, % test/control	Y
CCN(c1cc(-c2ccc(CN3CCOCC3)cc2)cc(C(=O)NCc2c(C)cc(C)[nH]c2=O)c1C)C1CCOCC1 + Cc1ccccc1N=Nc1ccc(NC(=O)c2ccnn2C)c(C)c1	324938-238-R-J1-PDC complex spheroid growth, % test/control	N

----------
test system: 324938-238-R-J1-PDC complex spheroid growth, % test/control; experiment: Anticancer human tumor 324938-238-R-J1-PDC cell line growth inhibition [AhR]; conditions: curve of first compound; second compound 3.16 µM;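 note: spheroids exposed to agents for seven days before viability read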
Consider the following molecules and their measured IC50 readings.
assay_endpoint: IC50

molecule	assay_endpoint	result
COc1ccc([C@@H](O)c2cc(-c3ncnc4cc(N5CCOCC5)ccc34)c(F)cc2Cl)nn1 + Cc1cncc(-c2nc(NCCc3c[nH]c4ccccc34)c3ncn(C(C)C)c3n2)c1	IC50	> 10000 nM
Cn1ncnc1C1c2n[nH]c(=O)c3cc(F)cc(c23)NC1c1ccc(F)cc1 (stereo not drawn) + Cc1cncc(-c2nc(NCCc3c[nH]c4ccccc34)c3ncn(C(C)C)c3n2)c1	IC50	> 100 nM
Nc1ncn(C2CC(O)C(CO)S2)c(=O)n1 (stereo not drawn) + Cc1ccccc1N=Nc1ccc(NC(=O)c2ccnn2C)c(C)c1	IC50	290 nM

----------
tested on: 324938-238-R-J1-PDC complex spheroid growth, % test/control; experiment: Anticancer human tumor 324938-238-R-J1-PDC cell line growth inhibition [AhR]; details: curve of first compound; second compound 3.16 µM;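 note: spheroids exposed to agents for seven days before viability read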
Consider the following compounds and their measured IC50 readings.

compound	IC50
O=C(C=Cn1cnc(-c2cc(C(F)(F)F)cc(C(F)(F)F)c2)n1)NNc1cnccn1 + Cc1ccccc1N=Nc1ccc(NC(=O)c2ccnn2C)c(C)c1	144 nM
Nc1ccccc1NC(=O)c1ccc(CNC(=O)OCc2cccnc2)cc1 + Cc1cncc(-c2nc(NCCc3c[nH]c4ccccc34)c3ncn(C(C)C)c3n2)c1	4100 nM
CC1COCCN1c1cc(C2(S(C)(=N)=O)CC2)nc(-c2ccnc3[nH]ccc23)n1 (stereo not drawn) + Cc1cncc(-c2nc(NCCc3c[nH]c4ccccc34)c3ncn(C(C)C)c3n2)c1	> 10000 nM
COc1cccc2c1C(=O)c1c(O)c3c(c(O)c1C2=O)CC(O)(C(=O)CO)CC3OC1CC(N)C(O)C(C)O1 (stereo not drawn) + Cc1ccccc1N=Nc1ccc(NC(=O)c2ccnn2C)c(C)c1	< 31.6 nM
COc1cc(C2c3cc4c(cc3C(OC3OC5COC(C)OC5C(O)C3O)C3COC(=O)C23)OCO4)cc(OC)c1O (stereo not drawn) + Cc1cncc(-c2nc(NCCc3c[nH]c4ccccc34)c3ncn(C(C)C)c3n2)c1	> 10000 nM
COc1cc(Nc2ncc3c(n2)-c2ccc(Cl)cc2C(c2c(F)cccc2OC)=NC3)ccc1C(=O)O + Cc1cncc(-c2nc(NCCc3c[nH]c4ccccc34)c3ncn(C(C)C)c3n2)c1	> 10000 nM
CC[C@@]1(O)C(=O)OCc2c1cc1n(c2=O)Cc2cc3c(CN(C)C)c(O)ccc3nc2-1 + CC(CO)NC(=O)c1cc(-c2ccc(Cl)cc2)nn(-c2cnn(C)c2)c1=O	14.2 nM
CC1COCCN1c1cc(-c2ccnn2C)c2ccnc(-c3ccn[nH]3)c2n1 (stereo not drawn) + Cc1cncc(-c2nc(NCCc3c[nH]c4ccccc34)c3ncn(C(C)C)c3n2)c1	> 1000 nM

----------
Test system: 324938-238-R-J1-PDC complex spheroid growth, % test/control
Assay: Anticancer human tumor 324938-238-R-J1-PDC cell line growth inhibition [AhR]; active means viability on the fitted dose curve at most 10% of control; inactive means the rest;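 note: spheroids exposed to agents for seven days before viability read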
Conditions: second compound 10 µM; first compound 10 µM
Source text: Multicellular complex tumor spheroid response to aryl hydrocarbon receptor antagonists in combination with a variety of drugs and investigational agents in selected tumor cell lines […] Compounds. […] If the clinical Cmax for an agent had not been determined, the highest concentration tested was 10 microM (Table 1). […]
Labels: active, inactive

molecule	classification
Nc1ccccc1NC(=O)c1ccc(CNC(=O)OCc2cccnc2)cc1 + Cc1cncc(-c2nc(NCCc3c[nH]c4ccccc34)c3ncn(C(C)C)c3n2)c1	active
COc1cccc2c1C(=O)c1c(O)c3c(c(O)c1C2=O)CC(O)(C(=O)CO)CC3OC1CC(N)C(O)C(C)O1 (configuration not stated) + Cc1cncc(-c2nc(NCCc3c[nH]c4ccccc34)c3ncn(C(C)C)c3n2)c1	active
COc1ccc([C@@H](O)c2cc(-c3ncnc4cc(N5CCOCC5)ccc34)c(F)cc2Cl)nn1 + Cc1cncc(-c2nc(NCCc3c[nH]c4ccccc34)c3ncn(C(C)C)c3n2)c1	active
CC1COCCN1c1cc(C2(S(C)(=N)=O)CC2)nc(-c2ccnc3[nH]ccc23)n1 (configuration not stated) + Cc1cncc(-c2nc(NCCc3c[nH]c4ccccc34)c3ncn(C(C)C)c3n2)c1	inactive
CC1(C)CCC(CN2CCN(c3ccc(C(=O)NS(=O)(=O)c4ccc(NCC5CCOCC5)c([N+](=O)[O-])c4)c(Oc4cnc5[nH]ccc5c4)c3)CC2)=C(c2ccc(Cl)cc2)C1 + Cc1cncc(-c2nc(NCCc3c[nH]c4ccccc34)c3ncn(C(C)C)c3n2)c1	active
COc1cc(C2c3cc4c(cc3C(OC3OC5COC(C)OC5C(O)C3O)C3COC(=O)C23)OCO4)cc(OC)c1O (configuration not stated) + Cc1ccccc1N=Nc1ccc(NC(=O)c2ccnn2C)c(C)c1	inactive
COc1cc(C2c3cc4c(cc3C(OC3OC5COC(C)OC5C(O)C3O)C3COC(=O)C23)OCO4)cc(OC)c1O (configuration not stated) + Cc1cncc(-c2nc(NCCc3c[nH]c4ccccc34)c3ncn(C(C)C)c3n2)c1	active

----------
Consider the following compounds and their measured IC50 readings.
test system: 324938-238-R-J1-PDC complex spheroid growth, % test/control; experiment: Anticancer human tumor 324938-238-R-J1-PDC cell line growth inhibition [AhR]; conditions: curve of first compound; second compound 3.16 µM;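 note: spheroids exposed to agents for seven days before viability read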
assay_endpoint: IC50

compound	result
Nc1ncn(C2CC(O)C(CO)S2)c(=O)n1 (centres undefined) + Cc1cncc(-c2nc(NCCc3c[nH]c4ccccc34)c3ncn(C(C)C)c3n2)c1	> 0.3 µM
O=C(c1cc(Cc2n[nH]c(=O)c3ccccc23)ccc1F)N1CCN(C(=O)C2CC2)CC1 + Cc1cncc(-c2nc(NCCc3c[nH]c4ccccc34)c3ncn(C(C)C)c3n2)c1	> 10 µM
Nc1ccn(C2OC(CO)C(O)C2(F)F)c(=O)n1 (centres undefined) + Cc1cncc(-c2nc(NCCc3c[nH]c4ccccc34)c3ncn(C(C)C)c3n2)c1	> 10 µM
CC1(C)CCC(CN2CCN(c3ccc(C(=O)NS(=O)(=O)c4ccc(NCC5CCOCC5)c([N+](=O)[O-])c4)c(Oc4cnc5[nH]ccc5c4)c3)CC2)=C(c2ccc(Cl)cc2)C1 + Cc1cncc(-c2nc(NCCc3c[nH]c4ccccc34)c3ncn(C(C)C)c3n2)c1	> 10 µM
Nc1ccn(C2OC(CO)C(O)C2(F)F)c(=O)n1 (centres undefined) + CC(CO)NC(=O)c1cc(-c2ccc(Cl)cc2)nn(-c2cnn(C)c2)c1=O	< 0.0316 µM
Nc1ncn(C2CC(O)C(CO)O2)c(=O)n1 (centres undefined) + Cc1cncc(-c2nc(NCCc3c[nH]c4ccccc34)c3ncn(C(C)C)c3n2)c1	> 1 µM
CC(C)c1c(-c2ccccc2)nc2c(C#N)c[nH]n2c1=O + CC(CO)NC(=O)c1cc(-c2ccc(Cl)cc2)nn(-c2cnn(C)c2)c1=O	> 10 µM
Nc1ncn(C2CC(O)C(CO)O2)c(=O)n1 (centres undefined) + Cc1ccccc1N=Nc1ccc(NC(=O)c2ccnn2C)c(C)c1	> 1 µM
CCN(c1cc(-c2ccc(CN3CCOCC3)cc2)cc(C(=O)NCc2c(C)cc(C)[nH]c2=O)c1C)C1CCOCC1 + Cc1ccccc1N=Nc1ccc(NC(=O)c2ccnn2C)c(C)c1	> 3 µM
